Attribution: patent US12048742B2

I'd appreciate it if you could supply solubility values for the items below.
# procedure summary: Solubility of T-cell epitope polypeptides in E1E2 buffer (Protocol 1)
# Type: physicochemical
# condition details: E1E2 buffer (10 mM sodium citrate, 250 mM NaCl, 1 mM EDTA, 0.1% TWEEN 80, pH 6.0), without adding dimethylsulfoxide; read-out: soluble in E1E2 buffer at a concentration of
No end group written: not given here.

residue_codes="GVYLLPRRGPRLGVRATRKTSERSQPRGRRQPIPKARRSEGRSWAQPGYP [TP50-C]" result="≥ 1000 µg/mL"

Turning to the following sequence.
What measured solubility goes with KSTKVPAAYAAQGYKVLVLNPSVAATLGFGAYMSK [TP35-NS3] ?
≥ 1000 µg/mL
